Organism: Rattus norvegicus
ASSAY: Open TG-GATES - Regimen: Single
Assay type: toxicity, organism-based, Sprague-Dawley
Set-up: regimen Single, gender Male, age 6 weeks
MEASUREMENT SETUP: in vivo, po, 0 mg/kg, 6 h, tissue Kidney, route gavage, dose level Control
OBSERVABLE: KIDNEY_L

Query: Suppose we examine the molecule COc1ccc(Cl)cc1C(=O)NCCc1ccc(S(=O)(=O)NC(=O)NC2CCCCC2)cc1 [GLYBURIDE] ; what KIDNEY_L value has been reported?
Result: 1 g

Query: Need KIDNEY_L of S=C=Nc1cccc2ccccc12 [1-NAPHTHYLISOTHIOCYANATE] , thanks.
Result: 1 g

Query: Which KIDNEY_L is reported for this molecule? CS(=O)(=O)Nc1ccc([N+](=O)[O-])cc1Oc1ccccc1 [NIMESULIDE]
Result: 0.8 g

Query: Item under review: `C=CCO` . Reported KIDNEY_L?
Result: 0.9 g

Further cases:
Query: Recorded KIDNEY_L of `O=C1CN(/N=C/c2ccc(-c3ccc([N+](=O)[O-])cc3)o2)C(O)=N1` , please.
Result: 1 g

---

Species: Rattus norvegicus
ASSAY: Open TG-GATES - Regimen: Single
Assay type: toxicity, organism-based, Sprague-Dawley
Set-up: regimen Single, gender Male, age 6 weeks
MEASUREMENT SETUP: in vivo, po, 0 mg/kg, 24 h, tissue Blood, route gavage, dose level Control
molecules and their reported Ht
Expressed in %, but write only the number.

Answered cases to consult:
Query: // query Ht value for entry O=C1NC(=O)C(c2ccccc2)(c2ccccc2)N1 [PHENYTOIN]
Result: 39.1

Query: Report Ht for Cc1cccc(Nc2cc(Cl)nc(SCC(=O)O)n2)c1C [PIRINIXIC ACID] please.
Result: 38.8

Query: Form field: reported Ht of S=C=Nc1cccc2ccccc12 [1-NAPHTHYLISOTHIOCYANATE]
Result: 37.5

Query: Entry under review: C=CCO [ALLYL ALCOHOL] . Reported Ht?
Result: 38.5

Query: Please look up its Ht: COc1ccc(Cl)cc1C(=O)NCCc1ccc(S(=O)(=O)NC(=O)NC2CCCCC2)cc1 [GLYBURIDE]
Result: 38

Query: Ht for COc1ccc(O)c(C(C)(C)C)c1.COc1ccc(O)cc1C(C)(C)C [BUTYLATED HYDROXYANISOLE] ?
Result: 38

Query: Request the reported Ht associated with Cn1cnc([N+](=O)[O-])c1Sc1ncnc2nc[nH]c12 [AZATHIOPRINE]
Result: 39.6

Query: Please give the measured Ht for this molecule: CNCCC(Oc1ccc(C(F)(F)F)cc1)c1ccccc1.Cl (centres undefined) [FLUOXETINE HYDROCHLORIDE]
Result: 39.6

New cases:
Query: Which Ht value belongs to CS(=O)(=O)Nc1ccc([N+](=O)[O-])cc1Oc1ccccc1 [NIMESULIDE] ?
Result: 38.9

---

Species: Rattus norvegicus
ASSAY: Open TG-GATES - Regimen: Single
Assay type: toxicity, organism-based, Sprague-Dawley
Set-up: regimen Single, gender Male, age 6 weeks
MEASUREMENT SETUP: in vivo, po, 0 mg/kg, 6 h, tissue Blood, route gavage, dose level Control
Examples of compounds with documented Bas follow.
Put down the number, then write its unit next to it.

Below are worked cases with known answers.
Query: Field request: Bas | item: COc1ccc(O)c(C(C)(C)C)c1.COc1ccc(O)cc1C(C)(C)C [BUTYLATED HYDROXYANISOLE]
Result: 0.2%

Query: Quick check: Bas of CS(=O)(=O)Nc1ccc([N+](=O)[O-])cc1Oc1ccccc1 [NIMESULIDE] ?
Result: 0%

Query: What does the record list as Bas for `Cn1cnc([N+](=O)[O-])c1Sc1ncnc2nc[nH]c12` ?
Result: 0%

Query: May I ask what Bas has been recorded for CNCCC(Oc1ccc(C(F)(F)F)cc1)c1ccccc1.Cl (centres undefined) [FLUOXETINE HYDROCHLORIDE] ?
Result: 0%

Query: Quick check: Bas of COc1ccc(Cl)cc1C(=O)NCCc1ccc(S(=O)(=O)NC(=O)NC2CCCCC2)cc1 [GLYBURIDE] ?
Result: 0%

New cases:
Query: Look up Bas for this compound: S=C=Nc1cccc2ccccc12 [1-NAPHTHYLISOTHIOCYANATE]
Result: 0.2%

Query: # Bas lookup, item O=P1(N(CCCl)CCCl)NCCCO1 (centres undefined) [CYCLOPHOSPHAMIDE ANHYDROUS]
Result: 0%

Query: Sample `Cc1cnc(NC(=O)C2=C(O)c3ccccc3S(=O)(=O)N2C)s1` — what was its Bas?
Result: 0.6%

Query: Find the recorded Bas belonging to `C=CCO` and report it.
Result: 0%
